# Method Summary: soluble fraction after stress (log2 fold change); higher = more stays soluble; pooled small domains, quantitative proteomics
# Study Conditions: stress: pH 4
Measured Metric: soluble fraction (log2)
Reply with the value as a number alone.

Observe how each entry below is paired with its result.
HMPSQEQSDKNAAMAFLPVIVKNALNGKGLKISDDWKAAVNTALAQYPLVNKFFNADSPEVTELVMGL; 0.0187
HMDINLGIGPLVKKYRTIKGYSIRELARNINVTASMLSQIERDIVNPSINTLKAISVELGVPMYKFFM; -0.217

Provide one value: measured soluble fraction (log2) of HMKDGAKYFQLFGLLKNEINRGIYQSGQKIPGENELAEKYGMSRQTVRQALSLLEQESLIERRQGSGTYVR
0.185
